Tested System: UniProt P0DMN7
Sequence (P0DMN7 whole entry): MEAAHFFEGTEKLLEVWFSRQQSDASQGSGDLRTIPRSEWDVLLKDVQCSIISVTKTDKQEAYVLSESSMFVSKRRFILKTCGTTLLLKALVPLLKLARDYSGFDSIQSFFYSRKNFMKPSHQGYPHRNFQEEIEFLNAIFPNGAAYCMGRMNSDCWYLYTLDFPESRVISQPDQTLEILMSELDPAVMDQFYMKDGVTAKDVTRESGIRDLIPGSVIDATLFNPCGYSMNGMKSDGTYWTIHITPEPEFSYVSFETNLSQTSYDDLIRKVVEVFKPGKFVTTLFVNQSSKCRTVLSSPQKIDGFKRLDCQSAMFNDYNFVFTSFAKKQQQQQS
Experiment Summary: Inhibition of S-Adenosyl-methionine decarboxylase (AdoMetDC) activity
Assay type: functional
Parameters: concentration or dose not given beside the values
Value Kind: Activity (%)

Some compounds with known Activity results, for comparison:
1) CCNCCCCNCCCNCCCCNCC; 28
2) CNCCCNCCCCNCCCNC; 40
3) CCNCCCNCCCCNCCCN; 27
4) CNCCCNCCCNCCCNC; 49
5) CCNCCCCNCCCCNCCCCN; 41
6) CCNCCCCNCCCCNCCCCNC(C)(C)C; 81

a: CCNCCCCNCCCCNCCCCNCC
b: CC(C)NCCCCNCCCCNCCCCNC(C)C
c: CCNCCCNCCCCNCCCNCC [BIS(ETHYL)SPERMINE]
Exercise: Order the items by recorded Activity; the first position goes to the largest value. To answer, arrange all of the labels according to the requested order.
Key: b, a, c
(b: 78%, a: 41%, c: 28%)

1: CCNCCCNCCCNCCCNCC [BIS(ETHYL)NORSPERMINE]
2: CCCNCCCNCCCCNCCCNCCC
Exercise: Lowest Activity? choose 1 or 2 In your reply, give the label of the chosen option.
Key: 1

a: CCNCCCCNCCCCNCCCNCC
b: CC(C)NCCCNCCCNCCCNC(C)C
Exercise: Between a and b , which one has the lower reported Activity value? Lab note: record the label of whichever item you select.
Key: a

====

Tested System: Spermidine/spermine N(1)-acetyltransferase (SAT) (Mus musculus) (UniProt Q6P8J2+P48026)
Sequence (P48026 whole entry, looked up): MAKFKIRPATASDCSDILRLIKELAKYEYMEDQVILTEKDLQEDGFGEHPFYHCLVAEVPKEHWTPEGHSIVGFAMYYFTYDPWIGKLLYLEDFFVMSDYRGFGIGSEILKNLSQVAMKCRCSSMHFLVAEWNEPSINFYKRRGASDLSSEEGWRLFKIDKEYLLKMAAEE
Sequence (Q6P8J2 whole entry, looked up): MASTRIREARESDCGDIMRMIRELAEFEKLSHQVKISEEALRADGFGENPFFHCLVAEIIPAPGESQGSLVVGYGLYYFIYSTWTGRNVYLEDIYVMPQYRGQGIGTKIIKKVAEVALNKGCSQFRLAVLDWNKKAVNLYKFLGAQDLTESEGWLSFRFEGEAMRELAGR
Experiment Summary: […] spermidine/spermine N1-Acetyltransferase (SSAT) activity
Format: functional
Design: concentration or dose not given beside the values
Value Kind: Activity (%)

1) CNCCCCNCCCCNCCCCNC; 140
2) CCNCCCNCCCCNCCCN; 150
3) CCNCCCCNCCCCCNCCCCNCC; 120
4) CCNCCCCNCCCNCCCCNCC; 120
5) CC(C)NCCCNCCCNCCCNC(C)C; 180

1: CCNCCCCNCCCCNCCCNCC
2: CC(C)NCCCCNCCCCNCCCCNC(C)C
3: CCNCCCNCCCNCCCNCC [BIS(ETHYL)NORSPERMINE]
4: CNCCCNCCCNCCCNC
Exercise: Highest Activity first, then in falling order down to the smallest. Please list each label once, in the requested order.
Key: 3, 1, 4, 2

a: CCNCCCNCCCCNCCCNCC [BIS(ETHYL)SPERMINE]
b: CCNCCCCNCCCCNCCCCNCC
c: CNCCCNCCCCNCCCNC
Exercise: Sort by Activity, descending. Thanks in advance for listing the labels in the requested order.
Key: a, c, b
(a: 460%, c: 300%, b: 140%)

====

System: L1210
Experiment Summary: In vitro inhibition of L1210 growth after 96 hours.
Assay type: functional, cell-based
Test Context: Mus musculus, L1210, 96 h
pIC50: −log10 of the molar value.
Value Kind: pIC50

1: CNCCCNCCCNCCCNC
2: CCNCCCCNCCCCNCCCNCC
3: CC(C)NCCCNCCCNCCCNC(C)C
4: CCNCCCCNCCCCNCCCCN
Exercise: Rank the items above by pIC50, largest value first. When ranking, write the labels in the order the request describes.
Key: 2, 4, 3, 1

Source of measurements: ChEMBL document CHEMBL1127367
